B1: HMOX1 (parent)
chain: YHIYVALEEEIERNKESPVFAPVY

Variants of: B1
TEST_METHOD_NOTES: protein stability index of a GFP-peptide fusion (GPS, HEK-293T) (PSI 1-6); higher = more stable;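 note: lentivirally expressed fusions sorted by FACS into six bins by GFP to DsRed ratio, PSI derived from sequencing read proportions per bin multiplied by bin number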
MEASUREMENT_CONTEXT: c terminus: a fixed tail appended
# cutoff 2 applies to protein stability index; >= gives 1, < gives -1

Field: example entries. Status: answers known.
[
  {
    "VARIANT_ANNOTATION": "E10R",
    "CATEGORY": -1
  },
  {
    "VARIANT_ANNOTATION": "P22E",
    "CATEGORY": 1
  },
  {
    "VARIANT_ANNOTATION": "E10Q",
    "CATEGORY": 1
  },
  {
    "VARIANT_ANNOTATION": "R13S",
    "CATEGORY": 1
  },
  {
    "VARIANT_ANNOTATION": "E9T",
    "CATEGORY": -1
  },
  {
    "VARIANT_ANNOTATION": "E10C",
    "CATEGORY": -1
  },
  {
    "VARIANT_ANNOTATION": "K15C",
    "CATEGORY": 1
  },
  {
    "VARIANT_ANNOTATION": "V19Y",
    "CATEGORY": -1
  },
  {
    "VARIANT_ANNOTATION": "V19C",
    "CATEGORY": -1
  }
]

Q: Reported protein stability index reaches at least 2 for R13A ?
A: -1
